- ASSAY SYSTEM: Neuraminidase (Influenza A virus)
- Sequence (B4URF0 whole entry): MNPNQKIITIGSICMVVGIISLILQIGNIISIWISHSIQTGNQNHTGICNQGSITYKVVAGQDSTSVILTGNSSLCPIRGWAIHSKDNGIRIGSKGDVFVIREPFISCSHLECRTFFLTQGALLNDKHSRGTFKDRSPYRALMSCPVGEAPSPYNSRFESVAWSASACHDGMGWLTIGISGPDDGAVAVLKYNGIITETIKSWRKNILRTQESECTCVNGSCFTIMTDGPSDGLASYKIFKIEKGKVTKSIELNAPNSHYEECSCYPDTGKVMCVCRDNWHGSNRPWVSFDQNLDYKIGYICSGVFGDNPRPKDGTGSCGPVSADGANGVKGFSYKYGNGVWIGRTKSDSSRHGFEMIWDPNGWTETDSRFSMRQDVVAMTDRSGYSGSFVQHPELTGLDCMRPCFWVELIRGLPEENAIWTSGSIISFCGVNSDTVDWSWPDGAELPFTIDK
pIC50: −log10 of the molar value.

[
  {
    "MOLECULE": "O=c1oc2cc(O)ccc2c2oc3cc(O)ccc3c12 [COUMESTROL]",
    "pIC50": 4.42
  }
]

----------
- System: Staphylococcus aureus
- EXPERIMENT: Antibacterial activity against Staphylococcus aureus ATCC 25923 assessed as bacterial growth inhibition by broth dilution method
- Format: functional, organism-based

[
  {
    "MOLECULE": "COc1ccc2c(c1CC=C(C)C)O[C@H]1c3ccc(O)cc3OC[C@@]21OC",
    "ASSAY SYSTEM": "Staphylococcus aureus",
    "IC50 [µg/mL]": 64
  },
  {
    "MOLECULE": "COc1ccc2c(c1CC=C(C)C)OC1c3ccc(O)cc3OCC21 (centres undefined)",
    "ASSAY SYSTEM": "Staphylococcus aureus",
    "IC50 [µg/mL]": 4
  },
  {
    "MOLECULE": "COc1ccc2c(c1CC=C(C)C)O[C@H]1c3ccc(O)cc3OCC21 (some centres undefined)",
    "ASSAY SYSTEM": "Staphylococcus aureus",
    "IC50 [µg/mL]": 8
  },
  {
    "MOLECULE": "COc1ccc2c(c1CC=C(C)C)O[C@H]1c3ccc(C)cc3OC[C@@]21O",
    "ASSAY SYSTEM": "Staphylococcus aureus",
    "IC50 [µg/mL]": 64
  }
]

----------
- EXPERIMENT: Antiproliferative activity against human PBMC cells assessed as reduction in cell viability at 10 microg/ml measured after 72 hrs by MTT assay
- Assay type: toxicity, cell-based
- COND: at 10 µg/mL
PROPERTY NAME: inhibition at 72 h, 10 microg/ml (%)

[
  {
    "COMPOUND STRUCTURE": "COc1ccc2c(c1)O[C@@H]1c3cc(OC)c(OC)cc3OC[C@H]21",
    "RESULT VALUE": 19
  }
]

----------
- EXPERIMENT: Cytotoxicity against mouse RAW264.7 cells assessed as increase in NO production measured after 48 hrs by MTT assay
- Type: toxicity, cell-based

[
  {
    "COMPOUND STRUCTURE": "C=C(C)/C(C)=C/c1c(O)ccc2c1O[C@H]1c3ccc(O)cc3OC[C@@H]21",
    "UNIT LABEL": "µM",
    "IC50 at 48 h": 23
  },
  {
    "COMPOUND STRUCTURE": "CC(=O)/C(C)=C/c1c(O)ccc2c1O[C@H]1c3ccc(O)cc3OC[C@@H]21",
    "UNIT LABEL": "µM",
    "IC50 at 48 h": 19
  }
]

----------
- Test system: Staphylococcus aureus
- EXPERIMENT: Antibacterial activity against methicillin-resistant Staphylococcus aureus ATCC 25923 assessed as bacterial growth inhibition by broth dilution method
- Type: functional, organism-based

[
  {
    "COMPOUND": "COc1ccc2c(c1CC=C(C)C)OC1c3ccc(O)cc3OCC21 (centres undefined)",
    "IC50 / µg/mL": 4
  },
  {
    "COMPOUND": "COc1ccc2c(c1CC=C(C)C)O[C@H]1c3ccc(C)cc3OC[C@@]21O",
    "IC50 / µg/mL": 64
  },
  {
    "COMPOUND": "COc1ccc2c(c1CC=C(C)C)O[C@H]1c3ccc(O)cc3OCC21 (some centres undefined)",
    "IC50 / µg/mL": 16
  },
  {
    "COMPOUND": "COc1ccc2c(c1CC=C(C)C)O[C@H]1c3ccc(O)cc3OC[C@@]21OC [ERYTHRIBYSSIN A]",
    "IC50 / µg/mL": 32
  }
]

----------
- Tested on: MCF7
- EXPERIMENT: Antiproliferative activity against human MCF7 cells assessed as growth inhibition measured after 48 hrs by CellTiter-Blue assay
- Type: functional, cell-based
- COND: MCF7, 48 h
pIC50: −log10 of the molar value.

[
  {
    "COMPOUND STRUCTURE": "COc1ccc2c(c1)O[C@@H]1c3cc(OC)c(OC)cc3OC[C@H]21",
    "ASSAY SYSTEM": "MCF7",
    "pIC50": 5.10
  }
]
